experiment: folding enthalpy; higher = less favourable; fluorescence melt of hairpins on a sequencing array, two-state fit; settings: sodium 0.088 M
Each entry falls into one class according to its folding enthalpy; the ranges are 1 (below -30 kcal/mol), 2 (-30 kcal/mol to below -20 kcal/mol), 3 (-20 kcal/mol or more)

Some solved entries appear below for comparison.
GCAGGTTCGAAAGAATGC (((..(((....))))))    3
GCTGTACGAAAGTATAGC (((.(((....))).)))    1

Query :: Would you mind sorting GTCTCCGAAAGGAGCGAC ((((((....)))..))) into the appropriate category?
Result :: 3

Query :: Would you mind sorting GTCCTACGAAAGTACGAC (((.(((....))).))) into the appropriate category?
Result :: 2

Query :: Would you mind sorting GCTTTGGGAAACCAAAGC (((((((....))))))) into the appropriate category?
Result :: 1

Query :: Would you mind sorting GCGTGCGGAAACGTACGC ((((.((....)).)))) into the appropriate category?
Result :: 1
